Taken from ChEMBL document CHEMBL4765313.

PROCEDURE_TEXT: Solubility of compound at pH 7.4 at 1 to 100 uM
Format: physicochemical
CONDITION_INFO: buffer, pH 7.4, 100 µM; dose 1-100 µM
QUANTITY_KIND: solubility

Would you please look over these solved cases?
O=C(CN1CCN(C(=O)c2cccc(F)c2)CC1)N1CCN(CCCc2c[nH]c3ccccc23)CC1    Soluble
O=C(CN1CCN(C(=O)c2cccc(Br)c2)CC1)N1CCN(CCCc2c[nH]c3ccccc23)CC1    Soluble
O=C(CN1CCN(C(=O)c2ccc(Cl)cc2)CC1)N1CCN(CCCc2c[nH]c3ccc(F)cc23)CC1    Soluble
COc1ccc2[nH]cc(CCCN3CCN(C(=O)CN4CCN(C(=O)c5cccc(Br)c5)CC4)CC3)c2c1    Soluble
Cc1ccc(C(=O)N2CCN(CC(=O)N3CCN(CCCc4c[nH]c5ccc(F)cc45)CC3)CC2)cc1    Soluble
COc1ccc(C(=O)N2CCN(CC(=O)N3CCN(CCCc4c[nH]c5ccccc45)CC3)CC2)cc1    Soluble

Asked: Consider the compound shown here: COc1cccc(C(=O)N2CCN(CC(=O)N3CCN(CCCc4c[nH]c5ccc(F)cc45)CC3)CC2)c1 What is its recorded solubility?
Given back: Soluble

Asked: Sample O=C(CN1CCN(C(=O)c2ccccc2)CC1)N1CCN(CCCc2c[nH]c3ccc(F)cc23)CC1 — what was its solubility?
Given back: Soluble

Asked: Consider the compound shown here: Cc1ccc(C(=O)N2CCN(CC(=O)N3CCN(CCCc4c[nH]c5ccccc45)CC3)CC2)cc1 What is its recorded solubility?
Given back: Soluble

Asked: Param item = COc1cccc(C(=O)N2CCN(CC(=O)N3CCN(CCCc4c[nH]c5ccc(OC)cc45)CC3)CC2)c1 ; retrieve measured solubility.
Given back: Soluble

Asked: What value of solubility has been recorded for this entry: COc1ccc2[nH]cc(CCCN3CCN(C(=O)CN4CCN(C(=O)c5ccccc5)CC4)CC3)c2c1
Given back: Soluble

Asked: Find the recorded solubility belonging to O=C(CN1CCN(C(=O)c2ccccc2Br)CC1)N1CCN(CCCc2c[nH]c3ccc(F)cc23)CC1 and report it.
Given back: Soluble

Asked: # get_value(readout='solubility', item= COc1ccc2[nH]cc(CCCN3CCN(C(=O)CN4CCN(C(=O)c5ccc(Br)cc5)CC4)CC3)c2c1 )
Given back: Soluble

Asked: Could you tell me which solubility is on file for COc1ccc2[nH]cc(CCCN3CCN(C(=O)CN4CCN(C(=O)c5ccc(C)cc5)CC4)CC3)c2c1 ?
Given back: Soluble

###

Tested on: SH-SY5Y
PROCEDURE_TEXT: Cytotoxicity against human SH-SY5Y cells assessed as reduction in cell viability incubated for 72 hrs by MTT assay
Assay type: ADME, cell-based
pIC50: −log10 of the molar value.
Outcome label depends on pIC50 relative to 4: at/above gives true (1), below gives false (0).

COc1ccc(C(=O)N2CCN(CC(=O)N3CCN(CCCc4c[nH]c5ccc(OC)cc45)CC3)CC2)cc1    false (0)
O=C(CN1CCN(C(=O)c2cccc(Br)c2)CC1)N1CCN(CCCc2c[nH]c3ccc(F)cc23)CC1    true (1)

Asked: Hi team, for O=C(CN1CCN(C(=O)c2ccccc2)CC1)N1CCN(CCCc2c[nH]c3ccccc23)CC1 , is the recorded pIC50 at or above 4?
Given back: false (0)

Asked: # check: pIC50 of O=C(CN1CCN(C(=O)c2ccc(F)cc2)CC1)N1CCN(CCCc2c[nH]c3ccccc23)CC1 is greater than or equal to 4
Given back: false (0)
